- assay-procedure: Displacement of [3H]flumazenil from GABAA/BzR complex in bovine cerebral cortex membrane
- Format: cell membranes, Bos taurus
pKi: −log10 of the molar value.
If the reported pKi equals or exceeds 6, assign T. If not, assign F.

- compound-smiles: "O=C(c1cccs1)c1cnn2c1n[n+]([O-])c1ccc(Oc3ccccc3)cc12"
  assigned-class: "T"
- compound-smiles: "Cn1cccc1C(=O)c1cnn2c1n[n+]([O-])c1ccc(Cl)cc12"
  assigned-class: "F"
- compound-smiles: "O=C(c1cccs1)c1cnn2c1n[n+]([O-])c1ccc(OCc3ccccc3)cc12"
  assigned-class: "T"
- compound-smiles: "CCOc1ccc2c(c1)n1ncc(C(=O)c3ccc[nH]3)c1n[n+]2[O-]"
  assigned-class: "F"
- compound-smiles: "O=C(c1ccc[nH]1)c1cnn2c1nnc1ccc(Cl)cc12"
  assigned-class: "F"
- compound-smiles: "O=C(c1ccc[nH]1)c1cnn2c1n[n+]([O-])c1ccc(Oc3ccccc3)cc12"
  assigned-class: "T"
- compound-smiles: "O=C(c1ccco1)c1cnn2c1n[n+]([O-])c1ccc(Cl)cc12"
  assigned-class: "T"
- compound-smiles: "O=C(c1ccccc1)c1cnn2c1n[n+]([O-])c1ccc(Cl)cc12"
  assigned-class: "F"
- compound-smiles: "COc1ccccc1C(=O)c1cnn2c1n[n+]([O-])c1ccc(Cl)cc12"
  assigned-class: "F"
